Reported Activity for human GIPR (EC50 nM), cAMP HTRF is given for each of the following binders.
Target: T1, human glucose-dependent insulinotropic peptide receptor (human, UniProt P48546)
T1 sequence: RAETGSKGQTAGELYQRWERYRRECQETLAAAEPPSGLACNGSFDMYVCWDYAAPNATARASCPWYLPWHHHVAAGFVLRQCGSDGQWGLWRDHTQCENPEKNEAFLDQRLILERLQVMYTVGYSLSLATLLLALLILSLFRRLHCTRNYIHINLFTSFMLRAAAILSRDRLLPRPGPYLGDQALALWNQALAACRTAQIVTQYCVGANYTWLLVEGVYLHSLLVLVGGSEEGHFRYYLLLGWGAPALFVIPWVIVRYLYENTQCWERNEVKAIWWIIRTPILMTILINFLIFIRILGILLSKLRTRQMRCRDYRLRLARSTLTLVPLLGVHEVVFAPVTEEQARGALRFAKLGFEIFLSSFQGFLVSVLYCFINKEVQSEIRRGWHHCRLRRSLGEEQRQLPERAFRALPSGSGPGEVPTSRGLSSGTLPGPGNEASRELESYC
Test: cell-based or functional assay
Numbered stars: 1 amine (or outer) side, 2 acyl side, 3 side chain; on linkers, the order of the positions; unused ones are H or OH. Square brackets hold non-standard residues; d marks the D form. Side chains are listed from the residue outwards. Ends that are not written are not given here. γGlu = O=C(O)[C@H](CCC(=O)[*:2])N[*:1]; AEEA = NCCOCCOCC(=O)O; Aib = CC(C)(N)C(=O)O
metric: Activity for human GIPR (EC50 nM), cAMP HTRF

binder	recorded-number
H-Y[Aib]EGTFTSDYSIYLEKIAAKEFVNWLLAGGPSSGAPPPS-NH2 (not fully specified (residue 20); printed as H-YAibEGTFTSDYSIYLEKIAAK(OEG-OEG-yGlu-C18-OH)EFVNWLLAG / GPSSGAPPPS-NH2) [Compound No. 30]	0.021
Y[Aib]EGTFTSDYSIYLDKIAAQEFVNWLLAGGPSSGAPPPSK([AEEA-AEEA-γGlu-C18‑OH])-NH2 [Compound No. 62]	0.045
